Parameter GeoMean: see the listing below.
# testedSystem: T1, cynomolgus αVβ6 on cells (cynomolgus)
# T1 construct: whole, on cells; also called macaque αVβ6; Mac AVB6
# assayExplanation: FACS, supernatant, HEK-293 transfected with cynomolgus αV and β6
// return just the number, without any unit appended

Here is how some binders turned out for GeoMean.
sc 320 (antibody, V domains shown, lambda light chain) VH: EVQLVESGGGLVKPGGSLRLSCAASGYTFTNYIMHWVRQAPGKGLEWVSSISISSSYIYYADSVKGRFTISRDNAKNSLYLQMNSLRAEDTAVYYCARDPVPLERRDYYYGMDVWGQGTTVTVSS VL: QSVLTQPPSMSAAPGQKVTISCSGSSSNIGNNYVSWYQQLPGTAPKLLIYDNNKRPSGIPDRFSGSKSGTSATLGITGLQTGDEADYYCGTWDSSLSAGVFGGGTKLTVL    33.5
sc 97 (antibody, V domains shown, lambda light chain; also called sc 097) VH: EVQLVQSGAEVKKPGESLKISCKGSGYSFTSYWIGWVRQMPGKGLEWMGIIYPGDSDTRYSPSFQGQVILSADKSISTAYLQWSSLKASDTAMYYCARHDESSGYYYVFDIWGQGTMVTVSS VL: SYELTQPPSVSVSPGQTARITCSGDALPKKYAYWYQQKSGQAPVLVIYEDIKRPSGIPERFSGSSSGTMATLTISGAQVEDEADYYCYSTDSSGNHWVFFGGGTKLTVL    37
sc 264 (antibody, V domains shown, lambda light chain) VH: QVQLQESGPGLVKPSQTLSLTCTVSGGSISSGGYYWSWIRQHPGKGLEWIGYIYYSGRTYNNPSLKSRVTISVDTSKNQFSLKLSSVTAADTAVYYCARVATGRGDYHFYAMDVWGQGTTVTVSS VL: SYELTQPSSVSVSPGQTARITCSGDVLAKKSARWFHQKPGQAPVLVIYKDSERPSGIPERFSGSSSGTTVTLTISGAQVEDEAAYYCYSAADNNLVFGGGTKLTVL    66.4

Here's the next entry for you.
Entry under review: sc 133 (antibody, V domains shown, lambda light chain; also called mAb sc 133) VH: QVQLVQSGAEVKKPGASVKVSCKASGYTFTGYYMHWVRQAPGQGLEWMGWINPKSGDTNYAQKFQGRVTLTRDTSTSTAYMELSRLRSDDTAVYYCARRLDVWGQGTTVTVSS VL: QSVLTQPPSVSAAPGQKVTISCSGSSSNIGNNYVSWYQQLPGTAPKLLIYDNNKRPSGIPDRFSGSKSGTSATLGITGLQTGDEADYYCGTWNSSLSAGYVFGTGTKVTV . Reported GeoMean?
35.2
